- protocol summary: Rat PK of amino acid prodrug after IV/PO administration
- Type: in vivo
- condition notes: plasma, 10 mg/kg IV, prodrug itself measured
endpoint: AUC(0-inf)

[[record]]
sample_smiles = "CCC(=O)/N=C1\\[C@H](C)C[C@@]2(C)OC/C(=N/OCc3ccc(-c4nc(NC(=O)[C@@H](N)CC(C)C)cs4)cn3)CO[C@H]([C@H]1C)[C@](C)(O)[C@@H](CC)OC(=O)[C@@](C)(F)C(=O)[C@H](C)[C@H]2O[C@@H]1O[C@H](C)C[C@H](N(C)C)[C@H]1O"
endpoint = "AUC(0-inf)"
experimental_value = "210 ng·h/mL"


====

- protocol summary: Oral pharmacokinetics in dog
- Assay type: in vivo
- condition notes: in vivo; oral, Dog, 10 mg/kg
endpoint: Tmax (h)

[[record]]
compound = "CC[C@H]1OC(=O)[C@H](C)C(=O)[C@H](C)[C@@H](O[C@@H]2O[C@H](C)C[C@H](N(C)C)[C@H]2O)[C@@]2(C)C[C@@H](C)/C(=N\\C(C)=O)[C@H](C)[C@@H](OC/C(=N\\OCc3ccc(-c4ccno4)nc3)CO2)[C@]1(C)O [Compound 4]"
endpoint = "Tmax"
experimental_value = 6


====

- protocol summary: Oral pharmacokinetics in dog
- Type: in vivo
- condition notes: in vivo; oral, Dog, 5 mg/kg
endpoint: Tmax

[[record]]
compound = "CC[C@H]1OC(=O)[C@H](C)C(=O)[C@H](C)[C@@H](O[C@@H]2O[C@H](C)C[C@H](N(C)C)[C@H]2O)[C@@]2(C)C[C@@H](C)/C(=N\\C(C)=O)[C@H](C)[C@@H](OC/C(=N\\OCc3ccc(-c4ccno4)nc3)CO2)[C@]1(C)O [Compound 4]"
experimental_value = "1.3 h"


====

- protocol summary: Tissue accumulation at the site of infection (plasma, skin, skin abscess)
- condition notes: mouse, uninfected skin, po, 50 mg/kg
endpoint: AUC(0-inf)

[[record]]
sample_smiles = "CCC(=O)/N=C1\\[C@H](C)C[C@@]2(C)OC/C(=N/OCc3ccc(-c4nc(N)cs4)cn3)CO[C@H]([C@H]1C)[C@](C)(O)[C@@H](CC)OC(=O)[C@@](C)(F)C(=O)[C@H](C)[C@H]2O[C@@H]1O[C@H](C)C[C@H](N(C)C)[C@H]1O"
experimental_value = "66600 ng·h/mL"


====

- protocol summary: Tissue accumulation at the site of infection (plasma, skin, skin abscess)
- condition notes: mouse, plasma, po, 50 mg/kg
endpoint: AUC(0-t) (ng·h/mL)

[[record]]
sample_smiles = "CCC(=O)/N=C1\\[C@H](C)C[C@@]2(C)OC/C(=N/OCc3ccc(-c4nc(N)cs4)cn3)CO[C@H]([C@H]1C)[C@](C)(O)[C@@H](CC)OC(=O)[C@@](C)(F)C(=O)[C@H](C)[C@H]2O[C@@H]1O[C@H](C)C[C@H](N(C)C)[C@H]1O"
experimental_value = 24400


====

- protocol summary: Rat PK of amino acid prodrug after IV/PO administration
- Format: in vivo
- condition notes: plasma, 10 mg/kg IV, prodrug itself measured
endpoint: Tmax (min)

[[record]]
sample_smiles = "CCC(=O)/N=C1\\[C@H](C)C[C@@]2(C)OC/C(=N/OCc3ccc(-c4nc(NC(=O)[C@@H](N)CC(C)C)cs4)cn3)CO[C@H]([C@H]1C)[C@](C)(O)[C@@H](CC)OC(=O)[C@@](C)(F)C(=O)[C@H](C)[C@H]2O[C@@H]1O[C@H](C)C[C@H](N(C)C)[C@H]1O"
experimental_value = 4.8

